Each recorded value in this set is attributed to BigSolDB 2.1.

Condition set: in water, 313.15 K
Parameter: solubility (mole fraction)
Would you mind answering with just the numeric figure?

Exercise: Need solubility (mole fraction), item [NH3+]C1CCCCC1.[S-]c1nc2ccccc2s1
Key: 2.59e-05

###

Condition set: in water, 348.15 K
Parameter: solubility (mole fraction)
Would you mind answering with just the numeric figure?

Exercise: Need solubility (mole fraction), item [NH3+]C1CCCCC1.[S-]c1nc2ccccc2s1
Key: 0.000164

###

Condition set: in toluene, 328.15 K
Parameter: solubility (mole fraction)
Would you mind answering with just the numeric figure?

Exercise: Need solubility (mole fraction), item [NH3+]C1CCCCC1.[S-]c1nc2ccccc2s1
Key: 0.000121
